Values from ChEMBL document CHEMBL4765279

- test_description: Cmax in BALB/c mouse at 10 mg/kg, po by LC-MS/MS analysis
- Format: ADME, organism-based
- Set-up: route oral, dose 10 mg/kg
- test_parameters: in vivo
measured_parameter: Cmax (ng/mL)

(A) CC(=O)c1c(C)c2cnc(Nc3ccc(N4CCNCC4)cc3)nc2n2cc(C(C)(C)C)nc12
(B) CC(=O)c1c(C)c2cnc(Nc3ccc(N4CCNCC4)cc3)nc2n2cc(C(C)C)nc12
Incoming: When A and B are compared, which has the higher number for Cmax? Record your answer as the label of the chosen record.
Outgoing: A

====

- experimental_system: CDK4/Cyclin D3 (Homo sapiens)
- Sequence (P11802 whole entry, the tested form may be a part): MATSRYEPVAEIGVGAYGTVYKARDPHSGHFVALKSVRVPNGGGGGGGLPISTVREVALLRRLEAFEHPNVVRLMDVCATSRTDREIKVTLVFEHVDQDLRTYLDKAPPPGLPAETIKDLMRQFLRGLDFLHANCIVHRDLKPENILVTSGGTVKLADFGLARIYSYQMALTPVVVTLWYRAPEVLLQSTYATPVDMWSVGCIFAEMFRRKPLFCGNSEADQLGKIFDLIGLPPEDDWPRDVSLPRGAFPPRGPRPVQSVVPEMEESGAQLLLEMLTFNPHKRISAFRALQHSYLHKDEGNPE
- Sequence (P30281 whole entry, further chain, the tested form may be a part): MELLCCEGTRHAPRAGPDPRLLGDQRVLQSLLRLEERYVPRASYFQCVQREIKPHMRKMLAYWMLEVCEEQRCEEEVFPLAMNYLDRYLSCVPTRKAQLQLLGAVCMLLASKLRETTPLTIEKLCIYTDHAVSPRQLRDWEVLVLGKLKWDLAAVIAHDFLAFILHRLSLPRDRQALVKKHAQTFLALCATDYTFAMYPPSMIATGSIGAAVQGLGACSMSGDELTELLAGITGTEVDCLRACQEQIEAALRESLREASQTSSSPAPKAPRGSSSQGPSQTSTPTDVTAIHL
- test_description: Inhibition of recombinant human full-length N-terminal GST-fused CDK4 (1 to 303 residues)/GST-tagged CyclinD3 (1 to 292 residues) expressed in baculovirus expression system using ULight-elF4E-binding protein 1 peptide as substrate measured after 30 mins by LANCE assay
pIC50: −log10 of the molar value.
measured_parameter: pIC50

Solved cases below.
Incoming: Suppose we examine the compound CC(=O)c1c(C)c2cnc(Nc3ccc(CN4CCNCC4)cn3)nc2n2cc(C(C)C)nc12 ; what pIC50 value has been reported?
Outgoing: 8.66

Incoming: What do you have for Cc1cn2c(n1)c(C#N)c(C)c1cnc(N)nc12 ?
Outgoing: 6.23

Incoming: What do you have for CC(=O)c1c(C)c2cnc(Nc3ccc4c(n3)CCNC4)nc2n2cc(C(C)C)nc12 ?
Outgoing: 8.00

Incoming: What do you have for CCOC(=O)c1cn2c(n1)c(C(C)=O)c(C)c1cnc(Nc3ccc(N4CCNCC4)cc3)nc12 ?
Outgoing: 7.65

Incoming: What do you have for CC(=O)c1c(C)c2cnc(Nc3ccc(N4CCC5(CCNC5)C4)cn3)nc2n2cc(C(C)C)nc12 (centres undefined) ?
Outgoing: 8.40

Incoming: What do you have for CC(=O)c1c(C)c2cnc(Nc3ccc(N4CCNCC4)cn3)nc2n2cc(C(C)C)nc12 ?
Outgoing: 8.43

(1) Cc1cn2c(n1)c(C#N)c(C)c1cnc(Nc3ccc(N4CCOCC4)cc3)nc12
(2) CC(=O)c1c(C)c2cnc(Nc3ccc(N4CCNCC4)cc3)nc2n2cc(C3CCCCC3)nc12
Incoming: Which of these two has the smaller recorded pIC50: 1 or 2 ? Record your answer as the label of the chosen record.
Outgoing: 1
(1: 6.91, 2: 7.72)

====

- Tested on: U-87 MG
- test_description: Antiproliferative activity against human U-87 MG cells assessed as cell growth inhibition measured after 4 to 6 days by celltiter-glo luminescent cell viability assay
- Assay type: functional, cell-based, U-87MG ATCC
measured_parameter: IC50 (nM)

Solved cases below.
Incoming: Suppose we examine the compound CC(=O)c1c(C)c2cnc(Nc3ccc4c(n3)CCN(CCN(C)C)C4)nc2n2cc(C(C)C)nc12 ; what IC50 value has been reported?
Outgoing: 249

Incoming: What do you have for CC(=O)c1c(C)c2cnc(Nc3ccc(N4CCNCC4)cc3)nc2n2cc(C(C)C)nc12 ?
Outgoing: 84.6

Incoming: What do you have for CC(=O)c1c(C)c2cnc(Nc3ccc(N4CCC5(CCNC5)C4)cn3)nc2n2cc(C(C)C)nc12 (centres undefined) ?
Outgoing: 719

(P) CC(=O)c1c(C)c2cnc(Nc3ccc(N4CCNCC4)cn3)nc2n(C2CCCC2)c1=O [PALBOCICLIB]
(Q) Cc1c(C#N)c2nc(C(C)C)cn2c2nc(Nc3ccc(N4CCNCC4)cc3)ncc12
(R) CNCCN1CCc2nc(Nc3ncc4c(C)c(C(C)=O)c5nc(C(C)C)cn5c4n3)ccc2C1
(S) CC(=O)c1c(C)c2cnc(Nc3ccc(N4CCNCC4)cc3)nc2n2cc(C3CCCC3)nc12
Incoming: Please order the records by their reported IC50, lowest number first. Use the labels to give the ranking in the order requested.
Outgoing: S, R, P, Q
